- TGT: human Adrenergic, Alpha 2A Receptor (Adra2A), ADRA2A (gene 150) (UniProt P08913)
- Sequence (P08913 whole entry, looked up): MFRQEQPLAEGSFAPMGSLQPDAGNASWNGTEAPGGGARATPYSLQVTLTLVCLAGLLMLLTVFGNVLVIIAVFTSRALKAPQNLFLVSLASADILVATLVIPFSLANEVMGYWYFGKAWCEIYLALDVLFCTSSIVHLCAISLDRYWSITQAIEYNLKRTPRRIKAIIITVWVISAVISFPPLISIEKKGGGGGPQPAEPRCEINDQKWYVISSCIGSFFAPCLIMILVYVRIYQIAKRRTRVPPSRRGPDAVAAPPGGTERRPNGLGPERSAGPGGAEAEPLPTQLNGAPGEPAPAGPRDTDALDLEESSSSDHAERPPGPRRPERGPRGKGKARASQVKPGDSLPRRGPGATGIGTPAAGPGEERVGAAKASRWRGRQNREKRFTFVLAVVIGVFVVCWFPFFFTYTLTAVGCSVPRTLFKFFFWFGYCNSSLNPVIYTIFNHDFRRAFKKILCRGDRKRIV
- TEST DESCRIPTION: NVS_GPCR_hAdra2A: NovaScreen (NVS) G Protein-Coupled Receptor Assay for human Adrenergic, Alpha 2A Receptor (Adra2A) (AID 2283257)
Inconclusive results are not listed. Active and inactive are the calls of the source. How the source made its calls: active means hit-call score of the fitted dose curve at least 0.9, where 1 is the maximum; inconclusive means response in the unintended direction; inactive means score below 0.9.
Possible outcomes: active, inactive

# SMILES, CATEGORY LABEL
rows = [
    ("O=C(NO)C1(NS(=O)(=O)c2ccc(Oc3ccc(F)cc3)cc2)CCOCC1", "active"),
    ("O=S(=O)(O)c1ccc(N=Nc2c(O)ccc3cc(S(=O)(=O)O)ccc23)cc1", "inactive"),
    ("OC(CCl)CCl", "active"),
    ("O=C(O)c1ccc2c(c1)nc(C(=O)NC1CCN(C3CC3)CC1)n2Cc1cc(-c2ccc(Cl)s2)on1", "active"),
    ("COc1cc(C(C)C)c2c(c1)S(=O)(=O)N(COc1cc(=O)n3cccc(OCCN4CCCCC4)c3n1)C2=O", "active"),
    ("NNC(=O)c1ccncc1", "inactive"),
    ("c1ccc(C(O[C@@H]2CCCN(CCc3ccc4c(c3)OCO4)C2)c2ccccc2)cc1", "active"),
    ("Cc1ncc([C@@H](CCCCCCc2ccc3c(n2)NCCC3)CC(=O)O)cn1", "active"),
]

----------
- TEST DESCRIPTION: BSK_hDFCGF_SRB: Viability Assessment in the BioMAP Diversity Plus: hDFCGF Assay (AID 2283061);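 further: cells exposed to compound for 24 h before the read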
- ASSAY CONDITIONS: primary human foreskin fibroblasts
Active and inactive are the calls of the source. Rule for the calls: active = hit-call score of the fitted dose curve at least 0.9, where 1 is the maximum; inactive = score below 0.9.
Possible outcomes: active, inactive

# SMILES, CATEGORY LABEL
rows = [
    ("COc1cc(C(C)C)c2c(c1)S(=O)(=O)N(COc1cc(=O)n3cccc(OCCN4CCCCC4)c3n1)C2=O", "active"),
    ("Cc1cccc(O)c1C", "inactive"),
    ("OC[C@H]1O[C@@H]2O[C@H]3[C@H](O)[C@@H](O)[C@@H](O[C@H]4[C@H](O)[C@@H](O)[C@@H](O[C@H]5[C@H](O)[C@@H](O)[C@@H](O[C@H]6[C@H](O)[C@@H](O)[C@@H](O[C@H]7[C@H](O)[C@@H](O)[C@@H](O[C@H]1[C@H](O)[C@H]2O)O[C@@H]7CO)O[C@@H]6CO)O[C@@H]5CO)O[C@@H]4CO)O[C@@H]3CO", "inactive"),
    ("CCCCCCCCCC", "inactive"),
    ("COCc1nnc(-c2ccc[n+]([O-])c2)n1-c1c(Cl)c(Cl)cc2[nH]c(=O)c(=O)[nH]c12", "inactive"),
    ("c1ccc(C(O[C@@H]2CCCN(CCc3ccc4c(c3)OCO4)C2)c2ccccc2)cc1", "active"),
    ("CC(C)c1nnc2ccc(-c3ocnc3-c3cc(F)ccc3F)cn12", "inactive"),
    ("O=C(O)[C@H](O)[C@@H](O)C(=O)O", "inactive"),
    ("O=C(O)c1cccc(C[C@@H]2COc3ccc(OCc4nc5cc(F)ccc5s4)cc3[C@@H]2O)c1", "inactive"),
    ("CCCOc1ccc(S(=O)(=O)N2CCN(CC)CC2)cc1-c1nc2c(CC)n(Cc3ccccn3)nc2c(=O)[nH]1", "inactive"),
    ("Cc1ncc([C@@H](CCCCCCc2ccc3c(n2)NCCC3)CC(=O)O)cn1", "inactive"),
    ("O=C(O)c1cccc(C(=O)O)c1", "inactive"),
    ("OC[C@H]1O[C@@](CO)(O[C@H]2O[C@H](CO)[C@@H](O)[C@H](O)[C@H]2O)[C@@H](O)[C@@H]1O", "inactive"),
    ("Cn1cc[nH]c1=S", "inactive"),
    ("OCCNCCO", "inactive"),
    ("Nc1ccn([C@@H]2O[C@H](CO)[C@@H](O)[C@@H]2O)c(=O)n1", "inactive"),
    ("CCCc1ccccc1", "inactive"),
    ("OCCC(F)(F)C(F)(F)C(F)(F)C(F)(F)F", "inactive"),
    ("Cc1nccn1-c1ccc(Sc2cccc(C3(C(N)=O)CCOCC3)c2)cc1", "inactive"),
    ("NC(=O)NN=Cc1ccc([N+](=O)[O-])o1", "inactive"),
]
